B1: Osa-1-4 twister ribozyme (parent)
chain: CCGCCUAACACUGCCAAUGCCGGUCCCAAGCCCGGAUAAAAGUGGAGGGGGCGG

variants of: B1; assay: self-cleavage, relative activity (ratio to wild type); higher = more cleavage; co-transcriptional
readout.label: self-cleavage
Lab note: record just the number, no unit beside it.

Study these solved cases before continuing.
>>> print(df.to_string())
                              sequence_code  result
0  CCGCCUAACAGUGCCAAUGCCGGUCCCAAGCCGGGAUAAAAGUGGAGGGGGCGG [C11G C33G]    0.07
1  CCGCCUAACACUGCCAAUGCCGGGCCCAAGCCCGGAUAACAGUGGAGGGGGCGG [A40C U24G]    0.01
2  CCGCCUAAGACUGCCAAUGCCGGUCCCAAGCCCGGAUAAAAGUCGAGGGGGCGG [C9G G44C]    1.04
3  CCGCCUAACACUGUCAAUGCCGGUCCCAAGCCCGGAUAAAAAUGGAGGGGGCGG [C14U G42A]    0.09
4  CCGCCUAACACUGCCAAUGCCGGUCCCAAGACCAGAUAAAAGUGGAGGGGGCGG [C31A G34A]    0.05

Ask | So what's the measured self-cleavage for this one? CCGCCUAACACUGCCAAUGCCGGUCCCAAGCCCGGAUAAAAGUGGAGGUGGCCG [G49U G53C]
Reply | 0.04

Ask | So what's the measured self-cleavage for this one? CCGCCUAACACUGCCAAUGCCGGUCCCAAGCCCGGCUAAAUGUGGAGGGGGCGG [A36C A41U]
Reply | 0.91

Ask | So what's the measured self-cleavage for this one? CCGCCUAACACUGCCAGUGCCGGUCCCAAGCCCGGAUAAAAGUGCAGGGGGCGG [A17G G45C]
Reply | 0.07

Ask | So what's the measured self-cleavage for this one? CCGCCUAACACUGCCAAUGCCGGUCCCAAGCCCGGAUAAAAGUGGAGCGGGCGG [G48C]
Reply | 0.12

Ask | So what's the measured self-cleavage for this one? CCGCCUAACACUGCCAAUGCCGGUUCCAAGCCCGGUUAAAAGUGGAGGGGGCGG [A36U C25U]
Reply | 0.92

Ask | So what's the measured self-cleavage for this one? CCGCCUAACACUGCCAAAGCCGGUCCCAAGCCCGGAUAAAAGUUGAGGGGGCGG [G44U U18A]
Reply | 0.83

Ask | So what's the measured self-cleavage for this one? CCGCCUAACAUUGCCAAUGCCGGUCCCAAGCCCGGAUAAAAGUGGAGGGGGCGC [C11U G54C]
Reply | 0.8

Ask | So what's the measured self-cleavage for this one? CCGCCUAACACUGCCAAUGCCGGUCCCAAGCCCGGAGAAAAGUGGAGGGGGCGG [U37G]
Reply | 1.03
